Quick reference for Kd among some molecules
Molecular target: human GIP receptor (bioGIPR) (Homo sapiens)
Construct: Biotinylate extracellular of the human GIP receptor (bioGIPR, Proteros biostructures GmbH, lot #02/2b); purchased Proteros biostructures GmbH lot #02/2b
Sequence (P48546 22-138 limits assumed): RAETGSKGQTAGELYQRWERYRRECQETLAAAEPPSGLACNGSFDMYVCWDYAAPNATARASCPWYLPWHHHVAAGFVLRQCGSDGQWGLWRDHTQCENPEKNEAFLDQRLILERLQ
Experiment: Surface plasmon resonance (SPR) based binding assay
Conditions: SPR, Single Cycle Kinetic mode, 25° C., 1:1 Langmuir binding model; read-out: pKD Category (converted)
*1 amine or outer side, *2 acyl side, *3 side chain or, on linkers, in order; H or OH if unused. Where a SMILES comes first, the peptide text is derived from it. Bridges are numbered along the chain shown (N, C = ends). [ ]: non-standard residue; d: D form. The star is where a group is joined. X3 = O=C(O)CN1CCN(CC(=O)O)CCN(CC(=O)NCCCOCCOCCOCCCN*)CCN(CC(=O)O)CC1; DOTA = O=C(O)CN1CCN(CC(=O)O)CCN(CC(=O)*)CCN(CC(=O)O)CC1; Trp(5-Cl) = N[C@@H](Cc1c[nH]c2ccc(Cl)cc12)C(=O)O; Pyridine(2,6-diCH2) = c1cc(C[*:1])nc(C[*:2])c1; Pro(4R-NH2) = N[C@H]1CN[C@H](C(=O)O)C1; X6 = c1cc(CSCCN[*:2])nc(C[*:1])c1; X7 = c1cc(CSCCN[*:2])cc(C[*:1])c1; Hyp = O=C(O)[C@@H]1C[C@@H](O)CN1; Suc = O=C(CCC(=O)[*:2])[*:1]; hLys = NCCCCC[C@H](N)C(=O)O; Api = NC1(C(=O)O)CCNCC1; Thp = NC1(C(=O)O)CCOCC1; Aib = CC(C)(N)C(=O)O

Known results for molecules:
Molecule	Kd
CC[C@H](C)[C@@H]1NC(=O)[C@H](CC(C)C)NC(=O)C2(CCN(C(=O)CN3CCN(CC(=O)O)CCN(CC(=O)O)CCN(CC(=O)O)CC3)CC2)NC(=O)[C@@H](NC(=O)[C@@H](CC(C)C)NC(=O)[C@H](CCC(=O)O)NC(=O)[C@@H]2C[C@@H](O)CN2C(=O)[C@H](Cc2c[nH]c3ccc(Cl)cc23)NC(=O)[C@H](Cc2c[nH]c3ccccc23)NC(=O)CCC(=O)O)CSCc2cccc(n2)CSCCNC1=O [GIP-110] (Suc-W[Trp(5-Cl)][Hyp]E[dL]C[Api](DOTA)LI; linker 6-C via X6)	< 1 nM
CC[C@H](C)[C@@H]1NC(=O)[C@H](CC(C)C)NC(=O)C2(CCOCC2)NC(=O)[C@@H](NC(=O)[C@@H](CC(C)C)NC(=O)[C@H](Cc2c[nH]cn2)NC(=O)[C@@H]2C[C@@H](O)CN2C(=O)[C@H](Cc2c[nH]c3ccc(Cl)cc23)NC(=O)[C@H](Cc2c[nH]c3ccccc23)NC(=O)[C@H](CC(=O)O)NC(C)=O)CSCc2cccc(n2)CSC[C@@H](C(N)=O)NC1=O [GIP-377] (Ac-DW[Trp(5-Cl)][Hyp]H[dL]C[Thp]LIC-NH2; linker 7-11 via Pyridine(2,6-diCH2))	1 to 7.94 nM
CC[C@H](C)[C@@H]1NC(=O)[C@H](CC(C)C)NC(=O)C(C)(C)NC(=O)[C@@H](NC(=O)[C@@H](CC(C)C)NC(=O)[C@H](CCC(=O)O)NC(=O)[C@@H]2C[C@@H](N)CN2C(=O)[C@H](Cc2c[nH]c3ccc(Cl)cc23)NC(=O)[C@H](Cc2c[nH]c3ccccc23)NC(=O)[C@H](CC(=O)O)NC(=O)CCC(=O)NCCCOCCOCCOCCCNC(=O)CN2CCN(CC(=O)O)CCN(CC(=O)O)CCN(CC(=O)O)CC2)CSCc2cccc(c2)CSCCNC1=O [GIP-095] ({X3-Suc}-DW[Trp(5-Cl)][Pro(4R-NH2)]E[dL]C[Aib]LI; linker 7-C via X7)	< 1 nM

Consider now this further molecule.
Recorded Kd (molecule CC[C@H](C)[C@@H]1NC(=O)[C@H](CC(C)C)NC(=O)C2(CCOCC2)NC(=O)[C@@H](NC(=O)[C@@H](CC(C)C)NC(=O)[C@H](CCCCCN)NC(=O)[C@@H]2C[C@@H](O)CN2C(=O)[C@H](Cc2c[nH]c3ccc(Cl)cc23)NC(=O)[C@H](Cc2c[nH]c3ccccc23)NC(=O)[C@H](CC(=O)O)NC(C)=O)CSCc2cccc(n2)CSC[C@@H](C(N)=O)NC1=O [GIP-378] (Ac-DW[Trp(5-Cl)][Hyp][hLys][dL]C[Thp]LIC-NH2; linker 7-11 via Pyridine(2,6-diCH2)) ): 1 to 7.94 nM
